- Test system: 786-0
- test-description: NCI tumour cell line growth inhibition, 48 h
The source made the active and inactive calls. No stated cut-off is given here; in the data, active = GI50 up to about 1.1 µM and inactive = higher.
Outcomes: active, inactive

>  <compound>
O=[N+]([O-])/C=C/c1cn(CCCCCCCCn2cc(/C=C/[N+](=O)[O-])c3ccccc32)c2ccccc12

>  <category-label>
inactive

$$$$
>  <compound>
CN(NC(=O)/C(=C\c1ccco1)NC(=O)c1ccccc1)c1cn[nH]c(=O)c1Cl

>  <category-label>
inactive

$$$$
>  <compound>
COc1cc(C2C(C#N)=C(N)OC3=C2CCS(=O)(=O)c2ccc(C)cc23)cc(OC)c1OC (centres undefined)

>  <category-label>
inactive

$$$$
>  <compound>
CC(C)OC(=O)C1=C(O)c2ccccc2S(=O)(=O)N1

>  <category-label>
inactive

$$$$
>  <compound>
CN(C)C(=O)/N=c1\ss/c(=N\C(=S)N(C)C)n1-c1ccccc1

>  <category-label>
inactive

$$$$
>  <compound>
CO/C=C(/C(=O)OC)c1ccccc1[C@@H]1CC1c1cccc(F)c1 (some centres undefined)

>  <category-label>
inactive

$$$$
>  <compound>
FC1CCN(C2(c3cccs3)CCCCC2)CC1

>  <category-label>
inactive

$$$$
>  <compound>
CC1=C(O)C(=O)C=C2C1=CC=C1[C@@]2(C)CC[C@@]2(C)C3C[C@@H](C)C(=O)[C@@H](O)[C@]3(C)CC[C@]12C (some centres undefined)

>  <category-label>
active

$$$$
>  <compound>
COc1c(-c2nc3ccc(N4CCN(C)CC4)nc3[nH]2)cc(OC)c2c1nc(CCl)n2C

>  <category-label>
inactive

$$$$
